Test Method Notes: growth suppression of yeast trafficking mutant, preliminary HTS, modulators of trafficking downstream of Golgi apparatus project, 1536-format plate, OD 615 nm (AID 637)
Measurement Setup: yeast transport mutant growth, absorbance 615 nm, 18 h; stronger effect = higher value
Activity calls are given as the source filed them. No stated cut-off is given here; in the data, active means inhibition above about 30%; inactive means the rest.
Please provide measured inhibition for the entries that follow.

Tell us which inhibition value is on record for O=C1NC(=O)C(CC(=O)N(Cc2ccco2)C2(C(=O)NC3CCCC3)CCCCC2)N1 (stereo not given) -6.51% (inactive)

Tell us which inhibition value is on record for O=C(COC(=O)C1CC2C=CC1C2)Nc1ccc2c(c1)OC(F)(F)O2 (stereo not given) -0.49% (inactive)

Tell us which inhibition value is on record for COc1ccc(S(=O)(=O)N2CCCC2C(=O)Nc2ccc(O)cc2)cc1 (stereo not given) -4.92% (inactive)

Tell us which inhibition value is on record for Cn1c(CSc2nc3ccccc3s2)nnc1SCC(=O)NCCN1CCOCC1 10% (inactive)

Tell us which inhibition value is on record for Nc1nc2n(n1)C(c1cccc(Br)c1)CC(c1ccccc1)N2 (stereo not given) 0.83% (inactive)

* * *

Please provide measured viability for the entries that follow.
Test Method Notes: MRP1 drug-resistance reversers in H69AR cells – cell-based, doxorubicin co-treatment, pilot screen (AID 601)
Measurement Setup: H69AR cells + 2 uM doxorubicin, CellTiter-Glo, 72 h; measured here: viability with 2 uM doxorubicin; at 10 µM; stronger effect = lower value
Could you give the number and then its unit, please?

Tell us which viability value is on record for COc1cccc2cc(C(=O)Nc3cccnc3N3CCOCC3)c(=O)oc12 84.2%

Tell us which viability value is on record for COc1cccc(NC(=O)c2nc3nc(C)cc(C(F)F)n3n2)c1 86.8%

Tell us which viability value is on record for O=C(NCCCN1CCOCC1)c1ccc(CS(=O)(=O)c2c(Cl)cccc2Cl)o1 94.3%

Tell us which viability value is on record for Cn1c(SCC(=O)Nc2ccc(F)cc2)nnc1-c1cccnc1 90.8%

Tell us which viability value is on record for COc1ccc(NC(=O)CSc2nc3c(c(=O)n2-c2ccccc2OC)SCC3)cc1 95.4%

Tell us which viability value is on record for COc1ccc(-c2nc(CSCC(=O)N3CCc4ccccc4C3)c(C)o2)cc1OC 92.4%

Tell us which viability value is on record for Cn1c(=O)c2c(nc3sccn32)n(C)c1=O 89.4%

Tell us which viability value is on record for O=C(/C=C/N1CCOCC1)c1ccc(-c2ccccc2)cc1 81.8%

Tell us which viability value is on record for CC1Cc2nc(SCC(=O)Nc3ccc4c(c3)OCO4)n(-c3ccc(F)cc3)c(=O)c2S1 (stereo not given) 87.1%

Tell us which viability value is on record for CC(c1ccco1)N(C(=O)c1ccc(S(=O)(=O)N2CCCCC2)cc1)c1ccccn1 (stereo not given) 94.2%

* * *

Test Method Notes: MRP1 drug-resistance reversers in H69AR cells – cell-based, doxorubicin co-treatment, pilot screen (AID 601)
Measurement Setup: H69AR cells, CellTiter-Glo, 72 h; compound alone cytotoxicity; at 10 µM
Quick rule for you: viability under 90% gets class 1, anything else gets class 0.

Hi there! Is viability for O=C(Cn1c(=O)sc2ccccc21)NCCOc1ccccc1F below 90%, do you know? class 0

Hi there! Is viability for Cc1ccc(-c2nc3cnccn3c2Nc2ccc3c(c2)OCO3)o1 below 90%, do you know? class 1

Hi there! Is viability for CCOC(=O)c1csc(NC(=O)C2CCCCC2)n1 below 90%, do you know? class 0

Hi there! Is viability for CCCCN(C)C(=O)c1cn(C)c2ccc(S(=O)(=O)N(C)C)cc2c1=O below 90%, do you know? class 0

Hi there! Is viability for CCCCN(C)C(=O)c1ccc(CS(=O)(=O)c2ccccc2C)o1 below 90%, do you know? class 1

Hi there! Is viability for O=C(Nc1cccc(F)c1)C1C2C=CC3(CN(CCCN4CCOCC4)C(=O)C13)O2 (stereo not drawn) below 90%, do you know? class 0

Hi there! Is viability for CCOc1ccccc1NC(=O)C1CCCN(S(=O)(=O)c2cccc3cccnc23)C1 (stereo not drawn) below 90%, do you know? class 1

Hi there! Is viability for CC1Cn2c(nnc2-c2ccc(F)cc2)S1 (stereo not drawn) below 90%, do you know? class 0

Hi there! Is viability for CCn1c(C(=O)N2CCC(C(=O)N3CCN(c4ccccn4)CC3)CC2)cc2sccc21 below 90%, do you know? class 1

Hi there! Is viability for CC1CCCCN1S(=O)(=O)c1ccc(NC(=O)c2cccs2)cc1 (stereo not drawn) below 90%, do you know? class 1

Hi there! Is viability for CCOc1ccc(NC(=O)C(C)Sc2nnc(C)n2C)cc1 (stereo not drawn) below 90%, do you know? class 0

Hi there! Is viability for Cc1ccc(-n2ncc3c(N4CCCC(C)C4)ncnc32)c(C)c1 (stereo not drawn) below 90%, do you know? class 1

Hi there! Is viability for Cc1ccc(S(=O)(=O)NCCSc2nnnn2-c2ccc(C(N)=O)cc2)cc1 below 90%, do you know? class 0

Hi there! Is viability for COc1ccc(C2C(C#N)=C(C)NC3=C2C(=O)CC(C)(C)C3)c(OC)c1 (stereo not drawn) below 90%, do you know? class 0

Hi there! Is viability for COC(=O)C(C)Sc1nnc2n(-c3cccc(C)c3)c(=O)c3c4c(sc3n12)CCCC4 (stereo not drawn) below 90%, do you know? class 1

Hi there! Is viability for Cc1cc(C)c2c(=O)n(CC(=O)N3CCC(Cc4ccccc4)CC3)sc2n1 below 90%, do you know? class 1

Hi there! Is viability for O=C(C1CCCN(S(=O)(=O)c2cccnc2)C1)N1CCn2c1nc1ccccc12 (stereo not drawn) below 90%, do you know? class 0

Hi there! Is viability for CCOC(=O)N1CCC(NC(=O)c2cc3c(=O)n(C)c4ccccc4c3n2C)CC1 below 90%, do you know? class 1

Origin of measurements: PubChem BioAssay
